Target: T1, human GIP receptor (human, UniProt P48546 22-466)
T1 sequence (looked up): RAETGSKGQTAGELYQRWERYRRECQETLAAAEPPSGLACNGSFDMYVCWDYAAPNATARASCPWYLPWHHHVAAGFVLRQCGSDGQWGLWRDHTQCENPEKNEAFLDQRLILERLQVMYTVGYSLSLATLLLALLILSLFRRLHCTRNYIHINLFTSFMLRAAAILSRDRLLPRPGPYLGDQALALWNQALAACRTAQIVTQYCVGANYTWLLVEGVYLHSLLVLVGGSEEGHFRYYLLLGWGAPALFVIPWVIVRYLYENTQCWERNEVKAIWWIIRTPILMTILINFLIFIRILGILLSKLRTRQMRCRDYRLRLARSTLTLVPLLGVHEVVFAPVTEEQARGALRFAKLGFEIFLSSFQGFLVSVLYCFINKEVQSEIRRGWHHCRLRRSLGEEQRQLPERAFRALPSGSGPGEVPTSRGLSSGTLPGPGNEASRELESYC
Assay: cell-based or functional assay
*1 amine or outer side, *2 acyl side, *3 side chain or, on linkers, in order; H or OH if unused. Where no end group is shown, it is not given here. Side-chain parts run from the residue outwards. [ ]: non-standard residue; d: D form. The star is where a group is joined. C18 diacid = O=C(O)CCCCCCCCCCCCCCCCC(=O)*; γGlu = O=C(O)[C@H](CCC(=O)[*:2])N[*:1]; εLys = N[C@@H](CCCCN[*:1])C(=O)[*:2]; Aib = CC(C)(N)C(=O)O
PROPERTY: EC50, CreLuc reporter, 0.5% hP (nM)
Write the number in nM without appending the unit.

Consider the following illustrative entries.
Qu. Record request: EC50, CreLuc reporter, 0.5% hP value, item YXEGTFTSDYSIXLEKQAQXAFVRALINKXTRQRY (Aib at 2, 13, 20, 30; Lys29 epsilon-amino: C18DA-gGlu-gGlu-gGlu-gGlu-gGlu-gGlu-eLys; C-terminal amide) [Compound 128]
Ans. 0.2

Qu. Record request: EC50, CreLuc reporter, 0.5% hP value, item YXEGTFTSDYSIXLEKQRQXAFVRHLINKXTRQRY (Aib at 2, 13, 20, 30; Lys29 epsilon-amino: C18DA-gGlu-gGlu-gGlu-gGlu-gGlu-gGlu-eLys; C-terminal amide) [Compound 91]
Ans. 0.8

Qu. Record request: EC50, CreLuc reporter, 0.5% hP value, item YXEGTFTSDYSIXLERQAQXAFVRHLINKXTRQRY (Aib at 2, 13, 20, 30; Lys29 epsilon-amino: C18DA-gGlu-gGlu-gGlu-gGlu-gGlu-gGlu-eLys; C-terminal amide) [Compound 124]
Ans. 0.1

Qu. Record request: EC50, CreLuc reporter, 0.5% hP value, item YXEGTFTSDYSIXLEKEAQXAFVRHLINKXTRQRY (Aib at 2, 13, 20, 30; Lys29 epsilon-amino: C18DA-gGlu-gGlu-gGlu-gGlu-gGlu-gGlu-eLys; C-terminal amide) [Compound 164]
Ans. 0.4

Qu. Record request: EC50, CreLuc reporter, 0.5% hP value, item YXEGTFTSDYSAXLEKQAQXAFVRHLINKXTRQRY (Aib at 2, 13, 20, 30; Lys29 epsilon-amino: C18DA-gGlu-gGlu-gGlu-gGlu-gGlu-gGlu-eLys; C-terminal amide) [Compound 156]
Ans. 0.8

Qu. Record request: EC50, CreLuc reporter, 0.5% hP value, item YXEGTFTSDYSEXLEKQAQXAFVRHLINKXTRQRY (Aib at 2, 13, 20, 30; Lys29 epsilon-amino: C18DA-gGlu-gGlu-gGlu-gGlu-gGlu-gGlu-eLys; C-terminal amide) [Compound 112]
Ans. 0.5

Qu. Record request: EC50, CreLuc reporter, 0.5% hP value, item YXEGTFTSDYSIXLEKQAQXAFVRHLINKXTRQXY (Aib at 2, 13, 20, 30; dOR at 34; Lys29 epsilon-amino: C18DA-gGlu-gGlu-gGlu-gGlu-gGlu; C-terminal amide) [Compound 96]
Ans. 0.3

Qu. Record request: EC50, CreLuc reporter, 0.5% hP value, item YXEGTFTSDYSIXLEKAAQXAFVRHLINKXTRQRY (Aib at 2, 13, 20, 30; Lys29 epsilon-amino: C18DA-gGlu-gGlu-gGlu-gGlu-gGlu-gGlu-eLys; C-terminal amide) [Compound 143]
Ans. 0.3

Qu. Record request: EC50, CreLuc reporter, 0.5% hP value, item YXEGTFTSDYSIXLEKQAQXAFVRHAINKXTRQRY (Aib at 2, 13, 20, 30; Lys29 epsilon-amino: C18DA-gGlu-gGlu-gGlu-gGlu-gGlu-gGlu-eLys; C-terminal amide) [Compound 139]
Ans. 12.2

Qu. Record request: EC50, CreLuc reporter, 0.5% hP value, item Y[Aib]EGTFTSDYSI[Aib]LDKQAQ[Aib]EFVRHLINK([εLys-γGlu-γGlu-γGlu-γGlu-γGlu-C18 diacid])[Aib]TRQRY-NH2 [Compound 113]
Ans. 0.2

--- query ---
Qu. Record request: EC50, CreLuc reporter, 0.5% hP value, item YXEGTFTSDYSIXLEKQAQEAFVRHLINKXTRQRY (Aib at 2, 13, 30; Lys29 epsilon-amino: C18DA-gGlu-gGlu-gGlu-gGlu-gGlu-gGlu-eLys; C-terminal amide) [Compound 170]
Ans. 0.4
